# Test system: P12-Ichikawa
# assay-remarks: cell viability relative to DMSO control; higher = less cytotoxic
# run-parameters: RPMI 5 mM glucose + 10% FBS; 48 h; 0.00702 µM
quantity-name: cell viability (%)
Write the answer as a number in %, unit excluded.

# input Notebook: pull reported cell viability for P12-Ichikawa, entry O=C(CCCN1CCN(c2ccc(F)cc2)CC1)NC1c2ccccc2CSc2ccccc21 (stereo not drawn)
# output 119

# input And the next one, N[C@@H]1CONC1=O ?
# output 106

# input Moving on to O=C(c1ccccc1)c1ccc2n1CCC2C(=O)O (stereo not drawn)
# output 124

# input How about this molecule: COC(=O)C\1=C(C)\N\C(=C(/C1C2=CC=CC3=NON=C23)C(=O)OC(C)C)C (stereo not drawn)
# output 100

# input Moving on to the next molecule: CNc1nc(Nc2cnn([C@H]3CCN(C4COC4)C[C@@H]3F)c2Cl)ncc1C(F)(F)F
# output 99.6

# input Likewise for COc1ccc2c(c1)[C@]13CCCCC1C(C2)N(C)CC3 (stereo partly drawn) ?
# output 119

# input Record: C[C@@H]1CCO[C@H]2CN\3/C=C(/C(=O)NCC4=C(F)C=C(F)C=C4)C(=O)\C(=C3C(=O)N12)O
# output 106

# input // query: CN(C)CC(C)(C)CNc1nn2c(-c3ccccc3)nnc2cc1C1CCC1
# output 104

# input Further, for Nc1ncnc2c1ncn2[C@@H]1O[C@H](CO)C[C@H]1O ?
# output 94

# input Moving on to the next molecule: CC(C(=O)O)c1ccc2c(c1)CC(=O)c1ccccc1S2 (stereo not drawn)
# output 101

# input Check CCCCCCCCCCCCCC(=O)N[C@H](CO)[C@H](O)c1ccc([N+](=O)[O-])cc1 too.
# output 95.5

# input Can you check CC(=O)Oc1ccccc1C(=O)Nc1ncc([N+](=O)[O-])s1 next?
# output 95.5

# input Similarly, CN1\C=N/C2=CC=C(NC3=CC(=CC=C3C)NC(=O)C4=CC(=CC=C4)C(C)(C)C#N)C=C2C1=O ?
# output 99

# input Same for CC(C)OC(=O)[C@H](C)N[P@](=O)(OC[C@H]1O[C@@H](N2\C=C/C(=O)NC2=O)[C@](C)(F)[C@@H]1O)OC3=CC=CC=C3
# output 124

# input Then what about the molecule C=CC(=O)Nc1cc2c(Nc3ccc(F)c(Cl)c3)ncnc2cc1OCCCN1CCOCC1 ?
# output 125

# input Can you handle CC(C)c1cc(C(C)C)c(CC(=O)N[S+](=O)([O-])Oc2c(C(C)C)cccc2C(C)C)c(C(C)C)c1 next?
# output 104

# input And what about the molecule CCCCCNC(=O)N1CCC(CN(Cc2ccc(Cl)cc2)Cc2ccc([N+](=O)[O-])s2)C1 (stereo not drawn) ?
# output 113

# input Now the same for CCCCOc1c(C(=O)c2c(F)cc(C)cc2F)cnc2[nH]ncc12
# output 107
